# Tested on: Rattus norvegicus
# assayRemarks: Percent inhibition of gastric lesions induced by ethanol was measured, after administration of 5 mg/kg po in rats
# Assay type: functional
# settings: Stomach
recordedMetric: inhibition in vivo at 5 mg/kg (%)
Lab book: enter the figure in %, no units written.

Examples from the recorded data:
C[C@H](CCC1(O)OC2CC3C4CC=C5C[C@@H](O[C@@H]6O[C@H](CO)[C@@H](O)[C@H](O)[C@H]6O[C@@H]6O[C@@H](C)[C@H](O)[C@@H](O)[C@H]6O)CC[C@]5(C)C4CC[C@]3(C)C2[C@@H]1C)CO[C@@H]1O[C@H](CO)[C@@H](O)[C@H](O)[C@H]1O (stereo not given in full) [TRIGOFOENOSIDE A]	11.7
C[C@@H](CC[C@@]1(O)O[C@H]2C[C@H]3[C@@H]4CC=C5C[C@@H](O[C@@H]6O[C@H](CO)[C@@H](O)[C@H](O[C@@H]7O[C@H](CO)[C@@H](O)[C@H](O)[C@H]7O)[C@H]6O[C@@H]6O[C@@H](C)[C@H](O)[C@@H](O)[C@H]6O)CC[C@]5(C)[C@H]4CC[C@]3(C)[C@H]2[C@@H]1C)CO[C@@H]1O[C@H](CO)[C@@H](O)[C@H](O)[C@H]1O	14.1
CC1CC[C@@]2(OC1)OC1C[C@H]3[C@@H]4CC=C5C[C@@H](O[C@@H]6O[C@H](CO)[C@@H](O[C@@H]7O[C@@H](CO)[C@H](O)[C@H]7O)[C@H](O)[C@H]6O[C@@H]6O[C@@H](C)[C@H](O)[C@@H](O)[C@H]6O)CC[C@]5(C)[C@H]4CC[C@]3(C)[C@@]1(O)[C@@H]2C (stereo not given in full)	93.7
C[C@@H]1CC[C@@]2(OC1)OC1C[C@H]3[C@@H]4CC=C5C[C@@H](O[C@@H]6O[C@H](CO)[C@@H](O[C@@H]7O[C@@H](CO)[C@H](O)[C@H]7O)[C@H](O)[C@H]6O[C@@H]6O[C@@H](C)[C@H](O)[C@@H](O)[C@H]6O)CC[C@]5(C)[C@H]4CC[C@]3(C)C1[C@@H]2C (stereo not given in full)	63.1

Now turn to the next compound.
For the compound shown here, C[C@H](CCC1(O)OC2CC3C4CC=C5C[C@@H](O[C@@H]6O[C@H](CO)C(O[C@@H]7O[C@@H](CO)[C@H](O)[C@H]7O)[C@@H](O)[C@H]6O[C@@H]6O[C@@H](C)[C@H](O)[C@@H](O)[C@H]6O)CC[C@]5(C)C4CC[C@]3(C)C2[C@@H]1C)CO[C@@H]1O[C@H](CO)[C@@H](O)[C@H](O)[C@H]1O (stereo not given in full) , give the reported inhibition in vivo at 5 mg/kg.
15.6

Measured values drawn from ChEMBL document CHEMBL1144970 for this set.
